Entries and their yeast fitness values follow.
B1: tRNA (parent)
chain: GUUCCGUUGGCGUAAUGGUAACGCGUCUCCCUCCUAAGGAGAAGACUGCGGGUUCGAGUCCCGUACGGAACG

- Variants of: B1
- assay_notes: yeast fitness relative to wild type (ratio to wild type); higher = fitter; tRNA-Arg(CCU), competitive growth, 37 C, YPD
This sample holds only a part of the variants without activity.
measure: yeast fitness

> print(dat)
                            polymer.sequence        measure  result
 1  GUUCCGUUGGCGUAAUGGCAACGCGUCCGCCUCCUAAGGAGAAGACUGCGGGUUCGUGUCCCGUACGGAACG [U19C U28C C29G A57U]  yeast fitness   ≤ 0.5
 2  GUUCCGAUGGCGUAAUGGUAACGCGUCUCACUCCUAAGGAGAAGACUGCGAGUUCGAGUCCCGUACGGAACG [U7A C30A G51A]  yeast fitness   ≤ 0.5
 3  GUUCCGUUGGGGUAGUGGUAACGCGGCUCCCUCCUAAGGAGAAAACUGCGGGUUCGAGUCCCGUACGGAACG [C11G A15G U26G G44A]  yeast fitness   ≤ 0.5
 4  GUUCCGUUGGCCUAAUGGUAACGCGUCUCCCUCUUAAGGAGAAAACUGCGGAUUUGAGUCCCGUACGGAACG [G12C C34U G44A G52A C55U]  yeast fitness   ≤ 0.5
 5  GUUCCGUUGGCGUAAUGGUAACGCGUUUCACUCCUAAGGAGAAGAGUGCGGGUUCGAGUCCCGUACGGAACG [C27U C30A C46G]  yeast fitness   0.698
 6  GUUCAGUUGGCGUAAUGGUAAGGCGUCUACCUCCUAAGGAGAAGACUGCGGGUUCGAGUCCCGUACAGAACG [C5A C22G C29A G67A]  yeast fitness   0.531
 7  GUUCCGUUGGCGUGAUGGUACCGCGUCUCGCUCCUAAGGAGAAGACUGCGGGUUCGUGUCCCGUACGGAACG [A14G A21C C30G A57U]  yeast fitness   ≤ 0.5
 8  GUUCCGUUGGCGUAAUGGUAACGCGUCUCCCUCCUAAGGGGACGACUGCGGGUUCGAGUCCCGUACGGAACG [A40G A43C]  yeast fitness    1.04
 9  GUUCCGUUGGCGUAAUGGUAAAGCAUCUCCCUCCUAAGGAGAAAACUGCGGGUUCGAGUCCCGUACGGAACG [C22A G25A G44A]  yeast fitness    0.65
10  GUUCCGUUGGGGUAAUGGUAACGCGUCUUCCUCCUAAGGAGAAGACUGCGGGUUCGAGUCACGUACGGAACG [C11G C29U C61A]  yeast fitness   ≤ 0.5
11  GUUCCGUUGGCGUUAUGGUAACGCGUCUCCCUCCUAAGGAGAAGAUUGCGGGUUCGAGUCCCGUACGGAACG [A14U C46U]  yeast fitness   0.664
12  GUUCCGUUGGCGUAAAGGUAACGCGUCUCCCUCCUAAGGAGAAGACUGCGGGUUCGUGUCCCGUACGGUACG [U16A A57U A69U]  yeast fitness   0.526
13  GUUCCGUGGGCGAAAUGGUAACGCGUCUCCCUCCUAAGGAGAGGACUGCGGGAUCGAGUCCCGUACGAAACG [U8G U13A A43G U53A G68A]  yeast fitness   ≤ 0.5
14  GUUCCGUUGGCGUAAUCGCAACGCGUCUCCCUCCUAAGGGGAAGACGGCGGGUUCGAGUCCCGUACGGAACG [G17C U19C A40G U47G]  yeast fitness   ≤ 0.5
15  GUUCCGUUGGCGUAAUCGUAACGCGUCUCCCUCCUAAGGAGAAGACUGCGGGUUUGAGUCCCGUACGGAACG [G17C C55U]  yeast fitness   0.598
16  GUUCGGUUGGCGUCAUGGUAACCCGUCUCCCUUCUAAAGAGAAGACUGCGGGUUCGACUCCCGUACGGAGCG [C5G A14C G23C C33U G38A G58C A70G]  yeast fitness   ≤ 0.5
17  GUUCCGUUGGGGUAAUGGUAACGCGUCUCCCUCCUAAGCAGAAGACCGCGGGUUCGAGUAGCGUACGGAACG [C11G G39C U47C C60A C61G]  yeast fitness   ≤ 0.5
18  GUUCCGUUGGCGUAAUGGUAACGCGUGUCCGUCCUAAGGAGAAGACUGCGGGUUCGAGUCCCUUACGGAACG [C27G C31G G63U]  yeast fitness   ≤ 0.5
19  GUUCCGUUGGCGUAAUAGUAACGCGUCUCCCUCCUACGGAGAAGACUGCGGAUUCAAGUCCCCUACGGAACG [G17A A37C G52A G56A G63C]  yeast fitness   ≤ 0.5
20  GUUCCGUUGACGUAAUGGUAACGCGUAUCCCUCCUUUGGAGAAGACUCCGGGUUCGAGUCCCGUACGGAACG [G10A C27A A36U A37U G48C]  yeast fitness   ≤ 0.5
21  GUUCCGUUGGCGUAAUGGUAACGCGUCUCCCUCCUAAGGAGAAGGCUGCCGGUACGAGUCCCGUACAGAACG [A45G G50C U54A G67A]  yeast fitness   0.803
22  GUUCCAUUGGCGUAAUGGUUACGCGUCUCCCUCCUAAGGAGAAGACUGUUGGUUCGAGUCCCGUACGGAACG [G6A A20U C49U G50U]  yeast fitness   ≤ 0.5
